Could you please report measured self-aminoacylation for the items listed next?
# System: biotinyl-Leu-oxazolone
# TEST PROTOCOL: self-aminoacylation, catalytic enhancement (BLO) (fold over background); higher = more active; k-Seq, kA / k0A0; sequences stand for … in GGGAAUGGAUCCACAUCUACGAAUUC…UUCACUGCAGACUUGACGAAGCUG
This sample holds only a part of the variants without activity.

Below, each entry is followed by its recorded self-aminoacylation result.
- PRIMARY SEQUENCE: "CGACACUUCAAGCAAUCGUUC [Fam1B.1 aminoacylation ribozyme variant]"
  self-aminoacylation: 0.669
- PRIMARY SEQUENCE: "CUACUUCAAACAUUCGGUCAG [Fam1A.1 aminoacylation ribozyme variant]"
  self-aminoacylation: 0.861
- PRIMARY SEQUENCE: "GUUCACCUAGGUUAUCGGGUG [Fam2.2 aminoacylation ribozyme variant]"
  self-aminoacylation: 4.08
- PRIMARY SEQUENCE: "CUUCGCCUAGGUCAUCGGGUG [Fam2.2 aminoacylation ribozyme variant]"
  self-aminoacylation: 4.47
- PRIMARY SEQUENCE: "CCACACUUCAAGCCAUCGGCC [Fam1B.1 aminoacylation ribozyme variant]"
  self-aminoacylation: 2.85
- PRIMARY SEQUENCE: "AUUCACCGAGGUAAUCGGGUG [Fam2.2 aminoacylation ribozyme variant]"
  self-aminoacylation: 11.5
- PRIMARY SEQUENCE: "AUUAACGUGGUCAUCGAGUGA [Fam2.1 aminoacylation ribozyme variant]"
  self-aminoacylation: 4.72

Moving on to another sequence below.
## Task Which self-aminoacylation reading was recorded for the sequence CCACACUCCAAGCAGUCGGUC [Fam1B.1 aminoacylation ribozyme variant] ?
## Result 1.11

----------
Could you please report measured self-aminoacylation for the items listed next?
# System: biotinyl-Ile-oxazolone
# TEST PROTOCOL: self-aminoacylation, catalytic enhancement (BIO) (fold over background); higher = more active; k-Seq, kA / k0A0; sequences stand for … in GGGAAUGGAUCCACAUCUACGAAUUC…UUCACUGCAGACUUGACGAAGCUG
Fewer inactive variants are shown than the library holds.
Give bare numbers.

Below, each entry is followed by its recorded self-aminoacylation result.
- PRIMARY SEQUENCE: "CUUACCCUGGUCACCGAGUGA [Fam2.1 aminoacylation ribozyme variant]"
  self-aminoacylation: 3.87
- PRIMARY SEQUENCE: "CCACACUUCACGUAAUCGGUC [Fam1B.1 aminoacylation ribozyme variant]"
  self-aminoacylation: 0.892
- PRIMARY SEQUENCE: "AUUCACCUAGGUCAGCGAGUG [Fam2.2 aminoacylation ribozyme variant]"
  self-aminoacylation: 3.44
- PRIMARY SEQUENCE: "AUUCACCUGGGUCGUCGGGUG [Fam2.2 aminoacylation ribozyme variant]"
  self-aminoacylation: 1.93
- PRIMARY SEQUENCE: "CCACACUUCAUGCAAGCGGUC [Fam1B.1 aminoacylation ribozyme variant]"
  self-aminoacylation: 1.08
- PRIMARY SEQUENCE: "CUACUUAAAAAAAUCGGUCUG [Fam1A.1 aminoacylation ribozyme variant]"
  self-aminoacylation: 0.88

Working through the 7 sequences below one at a time, give self-aminoacylation for each.
1. CUGCUUCAACCAAUCGGUCUG [Fam1A.1 aminoacylation ribozyme variant]
2. AUGACCCUGCUCAUCGAGUGA [Fam2.1 aminoacylation ribozyme variant]
3. AUUCACCUAGGUAAACGGGUG [Fam2.2 aminoacylation ribozyme variant]
4. CCACACCUCAAGGAAUCGGUC [Fam1B.1 aminoacylation ribozyme variant]
5. AAGUUUACUUAUAGUCGCAAG [Fam3.1 aminoacylation ribozyme variant]
6. CUUCUCCUAGGUCAUCGGGUG [Fam2.2 aminoacylation ribozyme variant]
7. CUUACCCUGGUCAUCGCGUGA [Fam2.1 aminoacylation ribozyme variant]

## Result
1.31
1.36
1.97
1.34
1.86
4.42
7.79

Working through the 5 sequences below one at a time, give self-aminoacylation for each.
1. CUACUUCAUACAACCGGUCUG [Fam1A.1 aminoacylation ribozyme variant]
2. GUGACCCUGGUCAUCGAGUGA [Fam2.1 aminoacylation ribozyme variant]
3. AAUAACCUGGUCAUCGAGUGA [Fam2.1 aminoacylation ribozyme variant]
4. CCACACUUCAAGCACUCGGCC [Fam1B.1 aminoacylation ribozyme variant]
5. ACUACCCUGGUCAUCGAGUAA [Fam2.1 aminoacylation ribozyme variant]

## Result
1. 0.925
2. 7.41
3. 3.67
4. 3.06
5. 3.33

----------
# Test system: biotinyl-Met-oxazolone
# TEST PROTOCOL: self-aminoacylation, catalytic enhancement (BMO) (fold over background); higher = more active; k-Seq, kA / k0A0; sequences stand for … in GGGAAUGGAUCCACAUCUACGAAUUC…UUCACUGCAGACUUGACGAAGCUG
Fewer inactive variants are shown than the library holds.
Could you please report measured self-aminoacylation for the items listed next?
Numbers only.

- PRIMARY SEQUENCE: "AAGUUUGCGUAUAGUCGCAAG [Fam3.1 aminoacylation ribozyme variant]"
  TESTED TARGET: "biotinyl-Met-oxazolone"
  self-aminoacylation: 1.21

Working through the 3 sequences below one at a time, give self-aminoacylation for each.
1. UUACUUCAAGCAAUCGGUCUG [Fam1A.1 aminoacylation ribozyme variant]
2. AUUCCCCUAGGUCAUCGGCUG [Fam2.2 aminoacylation ribozyme variant]
3. CUACACUUCAAGCAAUCGGUG [Fam1B.1 aminoacylation ribozyme variant]

## Result
1: 1.12; 2: 6.91; 3: 3.49

----------
# System: biotinyl-Phe-oxazolone
# TEST PROTOCOL: self-aminoacylation, catalytic enhancement (BFO) (fold over background); higher = more active; k-Seq, kA / k0A0; sequences stand for … in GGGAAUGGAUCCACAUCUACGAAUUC…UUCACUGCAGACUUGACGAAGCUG
Variants at the floor of the assay were thinned out.
Could you please report measured self-aminoacylation for the items listed next?
One number for each entry.

- PRIMARY SEQUENCE: "AGUCACCUAGGUCACCGGGUG [Fam2.2 aminoacylation ribozyme variant]"
  self-aminoacylation: 31.7
- PRIMARY SEQUENCE: "AAGUUUGCUAAAAGCCGCAAG [Fam3.1 aminoacylation ribozyme variant]"
  self-aminoacylation: 1.42
- PRIMARY SEQUENCE: "CUACUUGAGACAAUCGGUCUG [Fam1A.1 aminoacylation ribozyme variant]"
  self-aminoacylation: 0.89
- PRIMARY SEQUENCE: "CUUCACCUAGGCCAUCGGGUG [Fam2.2 aminoacylation ribozyme variant]"
  self-aminoacylation: 11.2
- PRIMARY SEQUENCE: "AUUACCCUAGUCAUUGAGUGA [Fam2.1 aminoacylation ribozyme variant]"
  self-aminoacylation: 25.9
- PRIMARY SEQUENCE: "ACUACCCUGGUCAACGAGUGA [Fam2.1 aminoacylation ribozyme variant]"
  self-aminoacylation: 17

Working through the 3 sequences below one at a time, give self-aminoacylation for each.
1. CUACUUCAAACAAUCGGUGUG [Fam1A.1 aminoacylation ribozyme variant]
2. AUUCAUCCAGGUCAUCGGGUG [Fam2.2 aminoacylation ribozyme variant]
3. AUUCAGCCAGGUCAUCGGGUG [Fam2.2 aminoacylation ribozyme variant]

## Result
[10.2, 47.8, 59.7]

----------
# Test system: biotinyl-Trp-oxazolone
# TEST PROTOCOL: self-aminoacylation, catalytic enhancement (BWO) (fold over background); higher = more active; k-Seq, kA / k0A0; sequences stand for … in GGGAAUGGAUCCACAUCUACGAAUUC…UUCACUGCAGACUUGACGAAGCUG
This sample holds only a part of the variants without activity.
RECORDED METRIC: self-aminoacylation

Below, each entry is followed by its recorded self-aminoacylation result.
- PRIMARY SEQUENCE: "AUUUACCCAGGUCAUCGGGUG [Fam2.2 aminoacylation ribozyme variant]"
  RECORDED METRIC: "self-aminoacylation"
  TEST VALUE: 3.66
- PRIMARY SEQUENCE: "AGUCACCUAGGUCAUCGGAUG [Fam2.2 aminoacylation ribozyme variant]"
  RECORDED METRIC: "self-aminoacylation"
  TEST VALUE: 0.786
- PRIMARY SEQUENCE: "CCACACUUCAAUCAGUCGGUC [Fam1B.1 aminoacylation ribozyme variant]"
  RECORDED METRIC: "self-aminoacylation"
  TEST VALUE: 0.687
- PRIMARY SEQUENCE: "AAGUUUGCUAAUAGAGGCAAG [Fam3.1 aminoacylation ribozyme variant]"
  RECORDED METRIC: "self-aminoacylation"
  TEST VALUE: 0.788

Working through the 7 sequences below one at a time, give self-aminoacylation for each.
1. CUAGUUCUAACAAUCGGUCUG [Fam1A.1 aminoacylation ribozyme variant]
2. CCACACUUGAAGCAAUCCGUC [Fam1B.1 aminoacylation ribozyme variant]
3. CCGCACUUCAAGUAAUCGGUC [Fam1B.1 aminoacylation ribozyme variant]
4. AUUCACCUAGGUCAUCCGGCG [Fam2.2 aminoacylation ribozyme variant]
5. AUUCAUGUAGGUCAUCGGGUG [Fam2.2 aminoacylation ribozyme variant]
6. CCACACUUAAAGCAAUCGGUG [Fam1B.1 aminoacylation ribozyme variant]
7. CUACUACUAACAAUCGGUCUG [Fam1A.1 aminoacylation ribozyme variant]

## Result
[0.588, 0.76, 14.5, 4.29, 5.09, 4.42, 0.466]

Working through the 8 sequences below one at a time, give self-aminoacylation for each.
1. CCACACCUCAAGCUAUCGGUC [Fam1B.1 aminoacylation ribozyme variant]
2. GAGUUUGCUAAUUGUCGCAAG [Fam3.1 aminoacylation ribozyme variant]
3. CUUGACCUAGGUCAUCGGGUG [Fam2.2 aminoacylation ribozyme variant]
4. AUUCACCUAGGUCAUCUGCUG [Fam2.2 aminoacylation ribozyme variant]
5. AUCCACCUAGGUCAUCGGGUU [Fam2.2 aminoacylation ribozyme variant]
6. CCACACAUCAAGCAAUCGAUC [Fam1B.1 aminoacylation ribozyme variant]
7. AGUACCCUGGUCAUCCAGUGA [Fam2.1 aminoacylation ribozyme variant]
8. CUACUUCAAACAUUCGGUCAG [Fam1A.1 aminoacylation ribozyme variant]

## Result
1: 0.809; 2: 2.06; 3: 5.2; 4: 0.391; 5: 12; 6: 0.513; 7: 6.9; 8: 0.688
